src = patent US9783536B2

Please go through the items and note down their pIC50.
- STUDY_SYSTEM: human PI3Kα protein (Homo sapiens)
- Construct: purchased Carna Biosciences, Inc; host or cells: baculovirus expression system
- Sequence (P42336 whole entry): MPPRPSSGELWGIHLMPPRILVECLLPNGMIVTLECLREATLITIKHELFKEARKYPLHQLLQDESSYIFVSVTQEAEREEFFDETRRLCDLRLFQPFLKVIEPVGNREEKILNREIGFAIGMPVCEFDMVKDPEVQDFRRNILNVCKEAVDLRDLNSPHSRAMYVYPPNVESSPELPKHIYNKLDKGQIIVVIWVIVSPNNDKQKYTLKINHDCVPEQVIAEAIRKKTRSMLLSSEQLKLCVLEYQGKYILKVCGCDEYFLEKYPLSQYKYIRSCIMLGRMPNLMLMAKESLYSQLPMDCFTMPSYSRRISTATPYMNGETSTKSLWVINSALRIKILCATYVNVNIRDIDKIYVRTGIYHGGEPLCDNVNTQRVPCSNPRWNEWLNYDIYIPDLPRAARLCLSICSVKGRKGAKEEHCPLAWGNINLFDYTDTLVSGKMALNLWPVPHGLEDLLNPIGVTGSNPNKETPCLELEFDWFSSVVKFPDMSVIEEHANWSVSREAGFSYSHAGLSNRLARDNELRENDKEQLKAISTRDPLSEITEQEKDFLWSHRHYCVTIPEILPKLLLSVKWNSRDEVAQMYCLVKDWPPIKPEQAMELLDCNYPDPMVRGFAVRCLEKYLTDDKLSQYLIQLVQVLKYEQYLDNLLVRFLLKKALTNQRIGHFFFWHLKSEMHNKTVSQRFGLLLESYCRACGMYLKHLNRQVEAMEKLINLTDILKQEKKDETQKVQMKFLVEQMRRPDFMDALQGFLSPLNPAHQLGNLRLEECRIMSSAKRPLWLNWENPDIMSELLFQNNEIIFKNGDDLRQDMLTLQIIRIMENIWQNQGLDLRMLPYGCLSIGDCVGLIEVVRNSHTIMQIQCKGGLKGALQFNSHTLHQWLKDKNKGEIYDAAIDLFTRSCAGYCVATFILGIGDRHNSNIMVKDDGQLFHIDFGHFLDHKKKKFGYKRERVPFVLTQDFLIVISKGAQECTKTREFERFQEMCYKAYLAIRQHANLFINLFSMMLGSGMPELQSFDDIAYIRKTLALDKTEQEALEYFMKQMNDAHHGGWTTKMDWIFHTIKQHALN
- Sequence (P27986 whole entry partner): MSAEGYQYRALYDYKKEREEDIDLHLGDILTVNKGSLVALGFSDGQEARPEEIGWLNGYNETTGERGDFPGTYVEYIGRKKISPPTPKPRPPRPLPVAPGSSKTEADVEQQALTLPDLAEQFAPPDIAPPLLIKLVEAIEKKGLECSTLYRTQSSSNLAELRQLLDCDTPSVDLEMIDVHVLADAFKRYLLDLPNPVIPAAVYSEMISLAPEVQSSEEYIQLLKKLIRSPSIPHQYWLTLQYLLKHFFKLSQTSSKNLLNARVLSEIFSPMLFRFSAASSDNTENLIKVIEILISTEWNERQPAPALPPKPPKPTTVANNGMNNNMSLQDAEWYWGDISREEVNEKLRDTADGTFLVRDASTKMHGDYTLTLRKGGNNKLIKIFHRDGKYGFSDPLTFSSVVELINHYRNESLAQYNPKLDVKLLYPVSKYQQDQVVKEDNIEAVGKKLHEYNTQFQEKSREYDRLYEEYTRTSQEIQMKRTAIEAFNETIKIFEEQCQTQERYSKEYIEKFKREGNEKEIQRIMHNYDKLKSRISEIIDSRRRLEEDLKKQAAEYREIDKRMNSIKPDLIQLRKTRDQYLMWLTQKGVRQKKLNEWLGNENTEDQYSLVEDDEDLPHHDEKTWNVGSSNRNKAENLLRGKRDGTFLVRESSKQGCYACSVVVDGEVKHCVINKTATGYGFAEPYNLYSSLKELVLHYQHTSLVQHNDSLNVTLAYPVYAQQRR
- ASSAY_EXPLANATION: PI3Kα enzyme assay (ADP-Glo)
- Format: biochemical
- CONDITIONS_USED: read-out: PI3Kα enzyme inhibitory activity
pIC50: −log10 of the molar value. Counter-ions that a name gives are not always drawn.

Request: Return pIC50 measured with human PI3Kα protein (Homo sapiens) given this molecule: COCC(C)c1cnnc(Nc2ccc3ncc(-c4cnn(C)c4)cc3n2)c1 (centres unmarked) [Example 0788]
Response: > 6.00

Request: Lab note: need pIC50 with human PI3Kα protein (Homo sapiens) for entry CC(C)c1cnnc(Nc2ccc3ncc(N(C)S(C)(=O)=O)cc3n2)c1 [Example 0841] , please look it up.
Response: 5.00 to 6.00

Request: Hi! What's the reported pIC50 for CC(C)c1nnc(Nc2ccc3nccc(-c4ccncc4)c3n2)s1 [Example 0269] on human PI3Kα protein (Homo sapiens)?
Response: > 6.00

Request: Value wanted: pIC50 (human PI3Kα protein (Homo sapiens)) of entry Cn1cc(-c2cnc3ccc(Nc4nnc([C@@H]5CCCO5)s4)nc3c2)cn1 [Example 0231]
Response: > 6.00

Request: // fetch human PI3Kα protein (Homo sapiens) pIC50 for c1ccc(-c2cnnc(Nc3ccc4ncc(-c5cnn(CCCN6CCCC6)c5)cc4n3)c2)cc1 [Example 0297]
Response: > 6.00

Request: Write down the reported pIC50 of CC(C)c1nnc(Nc2ccc3nccc(-c4cccc(C(N)=O)c4)c3n2)s1 [Example 0287] , test system: human PI3Kα protein (Homo sapiens).
Response: > 6.00

Request: Fill in the recorded pIC50 for this molecule, with human PI3Kα protein (Homo sapiens) as test system: CC(C)c1cnnc(Nc2ccc3ncc(-c4cnc(OC5CCN(C)CC5)s4)cc3n2)c1 [Example 0507]
Response: > 6.00

Request: Which measured pIC50 belongs to CC(C)N1CC(OCCn2cc(-c3cnc4ccc(Nc5cc(CC6CCCCC6)cnn5)nc4c3)cn2)C1 [Example 0819] , tested on human PI3Kα protein (Homo sapiens)?
Response: > 6.00

Request: Param readout = pIC50; param system = human PI3Kα protein (Homo sapiens); param query = Cc1ccncc1-c1cnc2ccc(Nc3cc(C(C)C)cnn3)nc2c1 [Example 0600] ; response: value
Response: 5.00 to 6.00

Request: Record CC(C)c1cnnc(Nc2ccc3ncc(-c4cnn(CCCN5CCO[C@@H](C)C5)c4)cc3n2)c1 [Example 0644] : what is its pIC50 with human PI3Kα protein (Homo sapiens)?
Response: > 6.00

Request: API: value(readout= pIC50, system= human PI3Kα protein (Homo sapiens), query= CC(C)c1cnnc(Nc2ccc3ncc(NS(C)(=O)=O)cc3n2)c1 [Example 0840] )
Response: 5.00 to 6.00

Request: Lookup: pIC50 / human PI3Kα protein (Homo sapiens) / CC(C)c1cnnc(Nc2ccc3ncc(-c4cnn(C5CN(C)C5)c4)cc3n2)c1 [Example 0490]
Response: > 6.00

Request: Record CNc1nn(C)cc1-c1cnc2ccc(Nc3cc(C(C)C)cnn3)nc2c1 [Example 0683, hydrochloride] : what is its pIC50 with human PI3Kα protein (Homo sapiens)?
Response: > 6.00

Request: Give human PI3Kα protein (Homo sapiens) pIC50 for CCC(CC)c1cnnc(Nc2ccc3ncc(-c4cnn(CCOC5CN(C(C)C)C5)c4)cc3n2)c1 [Example 0818]
Response: > 6.00

Request: Lookup: pIC50 / human PI3Kα protein (Homo sapiens) / CCN(c1cnnc(Nc2ccc3ncc(-c4cnn(C)c4)cc3n2)c1)C(C)C [Example 0500]
Response: > 6.00

Request: Tell me reported pIC50 for c1cc(-c2ccnc3ccc(Nc4nnc(CC5CCCO5)s4)nc23)ccn1 (centres unmarked) [Example 0276] , tested with human PI3Kα protein (Homo sapiens).
Response: > 6.00

Request: Please provide the recorded pIC50 for COCC(C)(C)c1cnnc(Nc2ccc3ncc(-c4cnn(C)c4)cc3n2)c1 [Example 0562] , tested on human PI3Kα protein (Homo sapiens).
Response: > 6.00
